- Tested on: Human immunodeficiency virus 1
- protocol-summary: Therapeutic index was determined
- study-conditions: read-out: Therapeutic index
readout-name: selectivity ratio
Reply with just the number.

Ask | If you can, please state the reported selectivity ratio value of O=C(O[C@@H]1O[C@@H]2COC(=O)c3cc(O)c(O)c(O)c3-c3c(cc(O)c(O)c3O)C(=O)O[C@H]([C@H]1OC(=O)c1cc(O)c(O)c(O)c1)[C@@H]2OC(=O)c1cc(O)c(O)c(O)c1)c1cc(O)c(O)c(O)c1 [PUNICAFOLIN] .
Reply | 1.8

Ask | Field entry: `O=C(O[C@@H]1O[C@H]2COC(=O)c3cc(O)c(O)c(O)c3-c3c(O)c(O)c(O)c(Oc4cc(C(=O)O[C@H]5O[C@H]6COC(=O)c7cc(O)c(O)c(O)c7-c7c(cc(O)c(O)c7O)C(=O)O[C@H]6[C@@H]6OC(=O)c7cc(O)c(O)c(O)c7-c7c(cc(O)c(O)c7O)C(=O)O[C@H]56)cc(O)c4O)c3C(=O)O[C@H]2[C@@H]2OC(=O)c3cc(O)c(O)c(O)c3-c3c(cc(O)c(O)c3O)C(=O)O[C@H]12)c1cc(O)c(O)c(O)c1`
Reply | 1.4

###

- Tested on: Human immunodeficiency virus 1
- protocol-summary: Anti-HIV activity in cell culture assay expressed as IC50 values.
- Type: functional, organism-based
- study-conditions: Human immunodeficiency virus 1
Assignment: determine reported pIC50 for the given compounds.
pIC50 is defined as minus the log10 of a concentration measured in mol/L.

Ask | Form: Entry = `O=C(O[C@H]1[C@H](O)C[C@](OC(=O)c2cc(O)c(O)c(O)c2)(C(=O)O)C[C@H]1O)c1cc(O)c(O)c(O)c1` | System = Human immunodeficiency virus 1 | pIC50 = ____
Reply | 4.35

Ask | Input O=C1O[C@H]2[C@H](O)[C@@H](OC(=O)c3cc(O)c(O)c4c3[C@@H]3C1=CC(=O)C(O)(O)C3(O)O4)[C@H](OC(=O)c1cc(O)c(O)c(O)c1)O[C@@H]2CO (stereo not given in full)
Reply | 4.15

Ask | // same read-out, input: O=C1OCC2OC(=O)c3cc(O)c(O)c(O)c3-c3c(O)c(O)c(O)c4c3C(=O)OC(C2OC(=O)c2cc(O)c(O)c(O)c2-c2c1cc(O)c(O)c2O)C1OC(=O)c2c-4c(O)c(O)c(O)c2[C@@H]1O (stereo not given in full)
Reply | 4.82

###

- Test system: Human immunodeficiency virus 1
- protocol-summary: Therapeutic index was determined
- study-conditions: read-out: Therapeutic index
readout-name: selectivity ratio
Number only, please.

Ask | What value of selectivity ratio on Human immunodeficiency virus 1 does O=C1c2c(O)cc(O)cc2O[C@H](c2ccc(O)c(O)c2)[C@H]1O [(+)-TAXIFOLIN] have?
Reply | 1

Ask | Let us now turn to O=C1OCC2OC(=O)c3cc(O)c(O)c(O)c3-c3c(O)c(O)c(O)c4c3C(=O)OC(C2OC(=O)c2cc(O)c(O)c(O)c2-c2c1cc(O)c(O)c2O)C1OC(=O)c2c-4c(O)c(O)c(O)c2[C@@H]1c1c(O)cc(O)c2c1O[C@H](c1ccc(O)c(O)c1)[C@@H](O)C2 (some centres undefined)
Reply | 3.8

###

- System: Human immunodeficiency virus 1
- protocol-summary: Anti-HIV activity in cell culture assay expressed as IC50 values.
- Format: functional, organism-based
- study-conditions: Human immunodeficiency virus 1
readout-name: pIC50
Remember the convention: pIC50 equals -log10 of concentration in molar.

Ask | State the recorded pIC50 for this entry: O=C1OCC2OC(=O)c3cc(O)c(O)c(O)c3-c3c(O)c(O)c(O)c4c3C(=O)OC(C2OC(=O)c2cc(O)c(O)c(O)c2-c2c1cc(O)c(O)c2O)C1OC(=O)C2C4=C(O)C(=O)C23Oc2cc(O)c4c(c2[C@H]13)O[C@H](c1ccc(O)c(O)c1)[C@@H](O)C4 (stereo not given in full)
Reply | 4.82

Ask | What about this molecule? O=C1O[C@H]2[C@H](OC(=O)c3cc(O)c(O)c(O)c3)[C@@H](OC(=O)c3cc(O)c(O)c4c3[C@@H]3C1=CC(=O)C(O)(O)C3(O)O4)[C@H](OC(=O)c1cc(O)c(O)c(O)c1)O[C@@H]2COC(=O)c1cc(O)c(O)c(O)c1 (stereo not given in full) [TERCHEBIN]
Reply | 4.40

###

- Tested on: Human immunodeficiency virus 1
- protocol-summary: Anti-HIV activity in cell culture assay expressed as IC50 values.
- Assay type: functional, organism-based
- study-conditions: Human immunodeficiency virus 1
Assignment: determine reported IC50 for the given compounds.
Your answer is read as µM, so omit the unit and give the number.

Ask | Sample O=C1OCC2OC(=O)c3cc(O)c(O)c(O)c3-c3c(O)c(O)c(O)c4c3C(=O)OC(C2OC(=O)c2cc(O)c(O)c(O)c2-c2c1cc(O)c(O)c2O)C1OC(=O)c2c-4c(O)c(O)c(O)c2[C@@H]1[C@@]1(O)O[C@@H](CO)[C@@H](O)[C@H]1O (stereo not given in full) — what was its IC50?
Reply | 15

Ask | Another: CC1(C)CC[C@]2(C(=O)O[C@@H]3O[C@H](CO)[C@@H](O)[C@H](O)[C@H]3O)CC[C@]3(C)C(=CCC4[C@@]5(C)C[C@@H](O)[C@@H]6OC(=O)c7cc(O)c(O)c(O)c7-c7c(cc(O)c(O)c7O)C(=O)OC[C@@]6(CO)C5CC[C@]43C)C2C1 (stereo not given in full)
Reply | 28

Ask | What would you report for CC1(C)CC[C@]2(C(=O)O)CC[C@]3(C)C(=CCC4[C@@]5(C)C[C@@H](O)[C@@H]6OC(=O)c7cc(O)c(O)c(O)c7-c7c(cc(O)c(O)c7O)C(=O)OC[C@@]6(CO)C5CC[C@]43C)C2C1 (stereo not given in full) ?
Reply | 40

Ask | O=C(OC[C@H]1OC(O)[C@@](O)(COC(=O)c2cc(O)c(O)c(O)c2)[C@@H]1O)c1cc(O)c(O)c(O)c1 (stereo not given in full) , same question.
Reply | 45

###

- target-or-test-system: UniProt Q72547
- protocol-summary: Inhibition against HIV- reverse transcriptase in cell culture at 20 ug/mL
Task for the reader: assign each of the following molecules its reported inhibition.

Ask | Given the entry `O=C(O[C@@H]1O[C@@H]2COC(=O)c3cc(O)c(O)c(O)c3-c3c(cc(O)c(O)c3O)C(=O)O[C@H]([C@H]1OC(=O)c1cc(O)c(O)c(O)c1)[C@@H]2OC(=O)c1cc(O)c(O)c(O)c1)c1cc(O)c(O)c(O)c1` , report its measured inhibition.
Reply | 0%

Ask | Also CC1(C)CC[C@]2(C(=O)O[C@@H]3O[C@H](CO)[C@@H](O)[C@H](O)[C@H]3O)CC[C@]3(C)C(=CCC4[C@@]5(C)C[C@@H](O)[C@@H]6OC(=O)c7cc(O)c(O)c(O)c7-c7c(cc(O)c(O)c7O)C(=O)OC[C@@]6(CO)C5CC[C@]43C)C2C1 (some centres not stated) , if possible.
Reply | 17%

Ask | Next molecule: O=C(OC[C@H]1OC(O)[C@@](O)(COC(=O)c2cc(O)c(O)c(O)c2)[C@@H]1OC(=O)c1cc(O)c(O)c(O)c1)c1cc(O)c(O)c(O)c1 (some centres not stated)
Reply | 25%

Ask | Please do the same for O=C(OC[C@H]1OC(O)[C@@](O)(COC(=O)c2cc(O)c(O)c(O)c2)[C@@H]1O)c1cc(O)c(O)c(O)c1 (some centres not stated) as well.
Reply | 16%

Ask | Entry to check: `Oc1cc(O)c2c(c1)O[C@H](c1ccc(O)c(O)c1)[C@H](O)[C@H]2c1c(O)cc(O)c2c1O[C@H](c1ccc(O)c(O)c1)[C@H](O)[C@H]2c1c(O)cc(O)c2c1O[C@H](c1ccc(O)c(O)c1)[C@H](O)C2`
Reply | 18%

Ask | Item: `O=C(O)C1=C[C@@H](O)[C@@H](O)[C@H](OC(=O)c2cc(O)c(O)c(OC(=O)c3cc(O)c(O)c(O)c3)c2)C1`
Reply | 31%

Ask | And what about the molecule O=C1O[C@H]2[C@H](O)[C@@H](OC(=O)c3cc(O)c(O)c4c3[C@@H]3C1=CC(=O)C(O)(O)C3(O)O4)[C@H](OC(=O)c1cc(O)c(O)c(O)c1)O[C@@H]2CO (some centres not stated) ?
Reply | 38%

###

- System: Human immunodeficiency virus 1
- protocol-summary: Therapeutic index was determined
- study-conditions: read-out: Therapeutic index
readout-name: selectivity ratio
Write the value as a bare number.

Ask | Fill in the blank: the reported selectivity ratio of `O=C(O[C@@H]1O[C@@H]2COC(=O)c3cc(O)c(O)c(O)c3-c3c(cc(O)c(O)c3O)C(=O)O[C@H]([C@H]1O)[C@@H]2O)c1cc(O)c(O)c(O)c1` is ____.
Reply | 1

Ask | Subsequent entry: O=C1OCC2OC(=O)c3cc(O)c(O)c(O)c3-c3c(O)c(O)c(O)c4c3C(=O)OC(C2OC(=O)c2cc(O)c(O)c(O)c2-c2c1cc(O)c(O)c2O)C1OC(=O)c2c-4c(O)c(O)c(O)c2[C@@H]1O (some centres undefined)
Reply | 1

Ask | Same lookup for O=C1OCC2OC(=O)c3cc(O)c(O)c(O)c3-c3c(O)c(O)c(O)c4c3C(=O)OC(C2OC(=O)c2cc(O)c(O)c(O)c2-c2c1cc(O)c(O)c2O)C1OC(=O)C2C4=C(O)C(=O)C23Oc2cc(O)c4c(c2[C@H]13)O[C@H](c1ccc(O)c(O)c1)[C@@H](O)C4 (some centres undefined) , please.
Reply | 3.8

Ask | Proceed to O=C1O[C@H]2[C@H](O)[C@@H](OC(=O)c3cc(O)c(O)c4c3[C@@H]3C1=CC(=O)C(O)(O)C3(O)O4)[C@H](OC(=O)c1cc(O)c(O)c(O)c1)O[C@@H]2CO (some centres undefined)
Reply | 1.4

Ask | Param item: O=C(OC[C@H]1OC(O)[C@@](O)(COC(=O)c2cc(O)c(O)c(O)c2)[C@@H]1O)c1cc(O)c(O)c(O)c1 (some centres undefined)
Reply | 0.9

Ask | Lookup `O=C(OC[C@H]1O[C@@H](OC(=O)c2cc(O)c(O)c(O)c2)[C@H](O)[C@@H](O)[C@@H]1O)c1cc(O)c(O)c(O)c1`
Reply | 0.8

Ask | Let us now turn to O=C1O[C@H]2[C@@H]3OC(=O)c4cc(O)c(O)c(O)c4-c4c(cc(O)c(O)c4O)C(=O)OC[C@H]2O[C@@H](OC(=O)c2cc(O)c(O)c(O)c2)[C@@H]3OC(=O)c2cc(O)c(O)c3c2[C@@H]2C1=CC(=O)C(O)(O)C2(O)O3 (some centres undefined)
Reply | 1.2

Ask | Another compound to look at: CC1(C)CC[C@]2(C(=O)O[C@@H]3O[C@H](CO)[C@@H](O)[C@H](O)[C@H]3O)CC[C@]3(C)C(=CCC4[C@@]5(C)C[C@@H](O)[C@@H]6OC(=O)c7cc(O)c(O)c(O)c7-c7c(cc(O)c(O)c7O)C(=O)OC[C@@]6(CO)C5CC[C@]43C)C2C1 (some centres undefined)
Reply | 1.6
